# TARGET ENTITY: Free fatty acid receptor 1 (Homo sapiens)
# Sequence (O14842 whole entry): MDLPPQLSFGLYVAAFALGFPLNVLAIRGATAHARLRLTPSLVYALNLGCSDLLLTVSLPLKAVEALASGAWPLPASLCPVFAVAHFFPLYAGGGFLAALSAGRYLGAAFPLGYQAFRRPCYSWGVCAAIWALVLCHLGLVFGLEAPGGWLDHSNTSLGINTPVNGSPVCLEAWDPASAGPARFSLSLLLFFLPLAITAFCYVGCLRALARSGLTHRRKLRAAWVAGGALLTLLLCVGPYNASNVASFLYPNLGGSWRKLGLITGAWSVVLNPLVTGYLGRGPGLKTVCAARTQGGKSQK
# TEST PROTOCOL: Agonist activity at GPR40 receptor expressed in CHO cells by reporter gene assay
# Format: functional, cell-based
Can you tell me %max for the items I'm about to list?
Hi! Could you send only the number? It should be in %, unit omitted.

# compound O=C(O)CCCc1ccc(NCc2cccc(Oc3ccccc3)c2)cc1 ; its %max = 74

# compound Cc1ccc(CNc2ccc(CCC(=O)O)cc2)cc1 ; its %max = 152

# compound O=C(O)CCc1ccc(NCc2ccc(Cl)s2)cc1 ; its %max = 143

# compound O=C(O)CCc1ccc(NCc2cccc(Br)c2)cc1 ; its %max = 120

# compound O=C(O)CCCc1ccc(NCc2ccc(-c3ccccc3)cc2)cc1 ; its %max = 62

# compound O=C(O)CCc1ccc(NCc2cc(C(F)(F)F)cnc2Cl)cc1 ; its %max = 112

# compound NC(=O)c1cccc(CNc2ccc(CCC(=O)O)cc2)c1 ; its %max = 18

# compound O=C(O)CCc1cccc(NCc2cccc(Oc3ccccc3)c2)c1 ; its %max = 148

# compound O=C(O)CCc1ccc(NCc2ccc(Oc3ccccc3)cc2)cc1 ; its %max = 139

# compound O=C(O)CCc1ccc(NCc2ccccc2)cc1 ; its %max = 144

# compound O=C(O)CCc1ccc(NCc2ccc(-c3ccccc3)cc2)cc1 ; its %max = 111

# compound O=C(O)CCc1ccc(NCc2ncc[nH]2)cc1 ; its %max = 4

# compound O=C(O)CCc1ccc(NCc2ccc3ccccc3c2)cc1 ; its %max = 123

# compound O=C(O)Cc1ccc(NCc2cccc(Oc3ccccc3)c2)cc1 ; its %max = 32

# compound O=C(O)CCc1ccc(NCc2ccc(C(F)(F)F)cc2)cc1 ; its %max = 133

# compound CS(=O)(=O)Nc1cccc(CNc2ccc(CCC(=O)O)cc2)c1 ; its %max = 9

# compound O=C(O)Cc1ccc(NCc2ccc(-c3ccccc3)cc2)cc1 ; its %max = 69

# compound O=C(O)CCc1ccc(NCc2cccnc2)cc1 ; its %max = 4

# compound O=C(O)CCc1ccc(NCc2ccc3c(c2)OCO3)cc1 ; its %max = 141

# compound N#Cc1ccc(CNc2ccc(CCC(=O)O)cc2)cc1 ; its %max = 49

# compound O=C(O)C1CC1c1ccc(NCc2ccc(-c3ccccc3)cc2)cc1 (stereo not given) ; its %max = 80

# compound O=C(O)CCc1ccc(NCc2cccc(F)c2)cc1 ; its %max = 120

# compound O=C(O)CCc1ccc(NCc2ccc(Cl)c(Cl)c2)cc1 ; its %max = 117

# compound O=C(O)CCc1cccc(NCc2ccc(-c3ccccc3)cc2)c1 ; its %max = 160

# compound O=C(O)C1CC1c1ccc(NCc2cccc(Oc3ccccc3)c2)cc1 (stereo not given) ; its %max = 74
